Target Or Test System: mTOR (Homo sapiens)
Construct: endogenous in cells; host or cells: Jurkat (ATCC TIB-152, clone E6-1) and Ramos (ATCC CRL-1596), 1:1 lysate mix
Procedure Summary: mTOR kinobeads assay (competition binding in cell lysate, dot blot detection)
Particulars: 1:1 mix of Jurkat and Ramos cell lysates, read-out: Inhibition values (IC50 in μM) as determined in the kinobeads assay, mTor
IC50 values for the compounds below.

# example entries with known answers
[
  {
    "Compound": "C[C@H]1COCCN1c1nc2c(c(-c3ccc(NC(=O)NCCO)cc3)n1)CN(S(C)(=O)=O)C2 [Example 36]",
    "Target Or Test System": "mTOR (Homo sapiens)",
    "IC50": "0.1 to 1 µM"
  },
  {
    "Compound": "CCOC(=O)N1Cc2nc(N3CCOC[C@@H]3C)nc(-c3ccc(NC(=O)NC4CC4)cc3)c2C1 [Example 9]",
    "Target Or Test System": "mTOR (Homo sapiens)",
    "IC50": "1 to 10 µM"
  },
  {
    "Compound": "C[C@H]1COCCN1c1nc2c(c(-c3ccc(NC(=O)NC4CC4)cc3)n1)CN(C(=O)CCN)C2 [Example 29]",
    "Target Or Test System": "mTOR (Homo sapiens)",
    "IC50": "1 to 10 µM"
  },
  {
    "Compound": "CC(O)CNC(=O)Nc1ccc(-c2nc(N3CCOC[C@@H]3C)nc3c2CN(C(C)C)C3)cc1 (stereo partly drawn) [Example 45]",
    "Target Or Test System": "mTOR (Homo sapiens)",
    "IC50": "1 to 10 µM"
  },
  {
    "Compound": "CS(=O)(=O)N1Cc2nc(N3CC4CCC(C3)O4)nc(-c3ccc(NC(=O)NC4CC4)cc3)c2C1 [Example 50]",
    "Target Or Test System": "mTOR (Homo sapiens)",
    "IC50": "1 to 10 µM"
  }
]

Ask | Short answer please: IC50, mTOR (Homo sapiens), entry CCNC(=O)N1Cc2nc(N3CCOC[C@@H]3C)nc(-c3ccc(NC(=O)NCCO)cc3)c2C1 [Example 37]
Reply | 0.1 to 1 µM

Ask | Short answer please: IC50, mTOR (Homo sapiens), entry CC(=O)N1Cc2nc(N3CCOC[C@@H]3C)nc(-c3ccc(NC(=O)NC4CC4)cc3)c2C1 [Example 12]
Reply | 1 to 10 µM
